All figures here come from patent US20140235701.

# ASSAY SYSTEM: NGF (nerve growth factor) (Homo sapiens, UniProt P01138 P01138:122-241)
# Sequence (P01138 122-241, one chain of several): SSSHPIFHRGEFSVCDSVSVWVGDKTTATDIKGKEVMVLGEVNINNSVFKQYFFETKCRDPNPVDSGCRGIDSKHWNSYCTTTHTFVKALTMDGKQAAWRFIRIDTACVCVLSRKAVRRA
# TEST PROTOCOL: cell_activity; neurite; TF-1 0.013
# EXPERIMENTAL SETUP: tags: R&D Systems; chain copies: 2
Catalogue of binders with associated pIC50
Scale note: pIC50 = -log10(concentration in M).

binder="GGGUCCUGAUUAAGAGUUUCCGUCUCGUAAUCUGUUACCC (ssRNA, 2'-OMe G (G8,G34 2'-OH), dA, 2'-F C/U; 5',3' idT) [SEQ ID NO: 76(1)]" readout_type=pIC50 readout_number=9.93

For this binder ( GGGUCCUGACUAAGAGUUUCCGUCUCGUAGUCUGUUACCC (ssRNA, 2'-OMe G (G8,G34 2'-OH), dA, 2'-F C/U; 5',3' idT) [SEQ ID NO: 77(1)] ), measured pIC50 is 9.90
